System: hGPR65 (Homo sapiens, UniProt Q8IYL9)
Construct: expressed in transfected cells; host or cells: HeLa (ATCC CCL-2), lentiviral transduction, pLX317
Sequence (Q8IYL9 whole entry): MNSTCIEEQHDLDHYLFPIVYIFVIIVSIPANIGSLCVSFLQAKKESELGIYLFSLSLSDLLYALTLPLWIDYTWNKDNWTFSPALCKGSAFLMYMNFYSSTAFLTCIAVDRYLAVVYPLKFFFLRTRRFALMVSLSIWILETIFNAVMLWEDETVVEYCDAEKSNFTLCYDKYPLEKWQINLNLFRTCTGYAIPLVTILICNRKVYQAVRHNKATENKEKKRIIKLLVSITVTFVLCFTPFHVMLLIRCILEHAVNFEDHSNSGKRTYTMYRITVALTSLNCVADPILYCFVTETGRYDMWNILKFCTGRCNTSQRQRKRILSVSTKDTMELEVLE
Method: cAMP detection in HeLa expression cell line, hGPR65
Type: cell-based
Experimental Conditions: hGPR EC50; NA = no activity
# strict inequality: EC50 < 4000 nM yields True, everything else yields False

These recorded examples may help you get a feel for the data.
Cc1ccc(NC(=O)c2cnn3c(O)cc(-c4ccc(N5CCN(C)CC5)cc4)nc23)cc1 ... False
Cc1ccc(NC(=O)c2cnn3c(O)cc(-c4ccc(COC(C)C)cc4)nc23)cc1 ... True

Please let me know if `Cc1ccc(NC(=O)c2cnn3c(O)cc(-c4ccc(F)c(Cl)c4)nc23)cc1` shows EC50 below 4000 nM.
True

Does the reported EC50 of the following compound sit strictly below 4000 nM? `COCc1ccc(-c2cc(O)n3ncc(C(=O)Nc4ccccc4)c3n2)cc1`
False

Lab log: compare recorded EC50 with 4000 nM; is it strictly lower for `Cc1ccc(NC(=O)c2cnn3c(O)cc(-c4ccc(COC(C)C)cc4)nc23)c(F)c1` ?
True

* * *

System: mGPR65 (Mus musculus, UniProt Q61038)
Construct: expressed in transfected cells; host or cells: HeLa (ATCC CCL-2), lentiviral transduction, pLX317
Sequence (Q61038 whole entry): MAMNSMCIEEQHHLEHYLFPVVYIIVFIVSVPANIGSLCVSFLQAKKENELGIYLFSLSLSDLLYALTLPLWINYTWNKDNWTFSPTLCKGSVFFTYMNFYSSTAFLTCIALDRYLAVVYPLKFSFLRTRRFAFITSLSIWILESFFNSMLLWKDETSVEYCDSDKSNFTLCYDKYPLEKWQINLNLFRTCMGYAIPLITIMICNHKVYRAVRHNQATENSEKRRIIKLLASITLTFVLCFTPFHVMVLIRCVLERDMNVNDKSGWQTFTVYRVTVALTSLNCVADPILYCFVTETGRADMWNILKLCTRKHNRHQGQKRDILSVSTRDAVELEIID
Method: cAMP detection in HeLa expression cell line, mGPR65
Type: cell-based
Experimental Conditions: HeLa, 2nd mGPR column pair; relative to 100uM forskolin (100%) and DMSO (0%); NA = no activity; read-out: mGPR Max Activity %
Recorded Emax, one value per entry.
Supply the numeric figure in %, leaving out any unit text.

Illustrative cases are given below, each with its answer.
CCOCc1ccc(-c2cc(O)n3ncc(C(=O)Nc4ccc(C)cc4)c3n2)cc1 [BRD6745] ... 48.9
COc1ccc(-c2cc(O)n3ncc(C(=O)Nc4ccc(C)cc4)c3n2)cc1 [BRD9965] ... -39
CCCc1cc(-c2cc(O)n3ncc(C(=O)Nc4ccccc4)c3n2)no1 [BRD0124] ... 56.2
Cc1ccc(NC(=O)c2cnn3c(O)cc(-c4ccc(COC(C)C)cc4)nc23)cn1 [BRD5071] ... 61.2

For the compound Cc1ccc(NC(=O)c2cnn3c(O)cc(-c4ccc(N5CCOCC5)cc4)nc23)cc1 [BRD4390] , give its measured Emax value.
26.8

* * *

System: mGPR65 (Mus musculus)
Construct: expressed in transfected cells; host or cells: HeLa (ATCC CCL-2), lentiviral transduction, pLX317
Method: cAMP detection in HeLa expression cell line, mGPR65
Assay type: cell-based
Experimental Conditions: SAR cAMP assay, third EC50/Max pair of mGPR columns; read-out: mGPR EC50
Endpoint: pEC50
pEC50 (log units): -log10 of the concentration in mol/L.

Cc1ccc(NC(=O)c2cnn3c(O)cc(-c4ccc(-c5cccc(C(C)C)c5)cc4)nc23)cc1 [BRD4922] ... 6.05

Next item in the queue.
# return recorded pEC50 for input Cc1ccc(NC(=O)c2cnn3c(O)cc(-c4cccc(-c5ccccc5)c4)nc23)cc1 [BRD8101]
7.05

* * *

System: hGPR65 (Homo sapiens, UniProt Q8IYL9)
Construct: expressed in transfected cells; host or cells: HeLa (ATCC CCL-2), lentiviral transduction, pLX317
Method: cAMP detection in HeLa expression cell line, hGPR65
Assay type: cell-based
Experimental Conditions: 1st hGPR column pair; NA = no activity; read-out: hGPR EC50
Endpoint: pEC50
FYI, pEC50 means -log10 of a concentration in mol per litre.

For orientation, consider the following solved cases.
Cc1ccc(NC(=O)c2cnn3c(O)cc(-c4ccc(N5CCC(=O)CC5)cc4)nc23)cc1 ... 5.39
COc1cc(-c2cc(O)n3ncc(C(=O)Nc4ccc(C)cc4)c3n2)ccc1F ... 5.83
CCOCc1ccc(-c2cc(O)n3ncc(C(=O)Nc4ccccc4)c3n2)cc1 ... 5.39
CC(C)OCc1ccc(-c2cc(O)n3ncc(C(=O)Nc4ccccn4)c3n2)cc1 ... 5.15
COCc1ccc(-c2cc(O)n3ncc(C(=O)Nc4ccc(C(=O)OC)cc4)c3n2)cc1 ... 5.89
Cc1ncc(NC(=O)c2cnn3c(O)cc(-c4ccc(COC(C)C)cc4)nc23)cn1 ... 5.09
COCc1ccc(-c2cc(O)n3ncc(C(=O)Nc4ccc(NC(C)=O)cc4)c3n2)cc1 ... 4.75
Cc1ccc(NC(=O)c2cnn3c(O)cc(-c4ccc(-c5ccccc5)cc4)nc23)cc1 ... 6.77
Cc1ccc(NC(=O)c2cnn3c(O)cc(-c4ccc5ccccc5c4)nc23)cc1 ... 6.56
COc1ccc(-c2cc(O)n3ncc(C(=O)Nc4ccc(C)cc4)c3n2)cc1 ... 6.13

Report pEC50 under test system hGPR65 (Homo sapiens, UniProt Q8IYL9) for `Cc1cnc(NC(=O)c2cnn3c(O)cc(-c4ccc(COC(C)C)cc4)nc23)nc1` .
5.70

Give pEC50 only, for `Cc1ccc(NC(=O)c2cnn3c(O)cc(-c4ccc(C(=O)N(C)C)cc4)nc23)cc1` , using hGPR65 (Homo sapiens, UniProt Q8IYL9) data.
5.70

Output reported pEC50 of the molecule `Cc1ccc(NC(=O)c2cnn3c(O)cc(CCc4c(C)noc4C)nc23)cc1` on hGPR65 (Homo sapiens, UniProt Q8IYL9).
5.51

Tell me pEC50 of `CCOCc1ccc(-c2cc(O)n3ncc(C(=O)Nc4ccc(C)cc4)c3n2)cc1` when tested on hGPR65 (Homo sapiens, UniProt Q8IYL9).
6.18

Look up and report measured pEC50 (hGPR65 (Homo sapiens, UniProt Q8IYL9)) for the following molecule: `O=C(Nc1ccccc1)c1cnn2c(O)cc(COc3ccccc3)nc12`
4.05

* * *

System: hGPR65 (Homo sapiens, UniProt Q8IYL9)
Construct: expressed in transfected cells; host or cells: HeLa (ATCC CCL-2), lentiviral transduction, pLX317
Method: cAMP detection in HeLa expression cell line, hGPR65
Type: cell-based
Experimental Conditions: SAR cAMP assay, second EC50/Max pair of hGPR columns; read-out: hGPR EC50
Endpoint: pEC50
// returns pEC50 (minus log10 of molar concentration), number only

Here is how some compounds turned out for pEC50.
Cc1ccc(NC(=O)c2cnn3c(O)cc(-c4ccc(C5CCCCC5)cc4)nc23)cc1 ... 4.04
Cc1ccc(NC(=O)c2cnn3c(O)cc(-c4cccc(-c5ccccc5)c4)nc23)cc1 ... 5.02

Moving on to the next compound.
Hello, please tell me recorded pEC50 for this one: `Cc1ccc(NC(=O)c2cnn3c(O)cc(-c4ccc(-c5cccc(C(C)C)c5)cc4)nc23)cc1`
5.85

* * *

Entries and their EC50 values follow.
System: hGPR65 (Homo sapiens, UniProt Q8IYL9)
Construct: expressed in transfected cells; host or cells: HeLa (ATCC CCL-2), lentiviral transduction, pLX317
Method: cAMP detection in HeLa expression cell line, hGPR65
Format: cell-based
Experimental Conditions: 2nd hGPR column pair; NA = no activity; read-out: hGPR EC50
Return type: number; implicit unit nM.

Cc1cnc(NC(=O)c2cnn3c(O)cc(-c4ccc(COC(C)C)cc4)nc23)cn1 [BRD5073] ... 3050

Read the entry Cc1ccc(NC(=O)c2cnn3c(O)cc(-c4ccc5ccccc5c4)nc23)cc1 [BRD7102] and write its reported EC50.
151

Supply recorded EC50 for Cc1ncc(NC(=O)c2cnn3c(O)cc(-c4ccc(COC(C)C)cc4)nc23)cn1 [BRD5072] here.
6930

State, in one line, measured EC50 of COc1cc(-c2cc(O)n3ncc(C(=O)Nc4ccc(C)cc4)c3n2)ccc1F [BRD5066]
1840

Supply EC50 value. Item: CC(C)OCc1ccc(-c2cc(O)n3ncc(C(=O)Nc4cccnc4)c3n2)cc1 [BRD5077]
8260

Consider the compound COCc1ccc(-c2cc(O)n3ncc(C(=O)Nc4ccc(C(=O)OC)cc4)c3n2)cc1 [BRD0592] and give its recorded EC50.
1250

Answer with the recorded EC50 for the compound listed here: Cc1ccc(NC(=O)c2cnn3c(O)cc(-c4ccc(C(=O)N(C)C)cc4)nc23)cc1 [BRD5084]
1230

Complete the entry with EC50 for Cc1ccc(NC(=O)c2cnn3c(O)cc(-c4ccc(N5CCN(C)CC5)nc4)nc23)cc1 [BRD5070]
68.7

* * *

System: mGPR65 (Mus musculus)
Construct: expressed in transfected cells; host or cells: HeLa (ATCC CCL-2), lentiviral transduction, pLX317
Method: cAMP detection in HeLa expression cell line, mGPR65
Format: cell-based
Experimental Conditions: relative to 100uM forskolin (100%) and DMSO (0%); NA = no activity
Endpoint: mGPR Max Activity (%)
Respond numerically; units are % and should not be typed.

Please supply the value of reported mGPR Max Activity for the item COCc1ccc(-c2cc(O)n3ncc(C(=O)NCc4ccc(C)cc4)c3n2)cc1 [BRD4305]
60.85

Hey, just so you know, these numbers are from paper PMC11259170.
